- Tested on: Vero E6 infected with SARS-CoV-2
- Experiment: SARS-CoV-2 infection rate relative to infected DMSO; higher = more infection, active = 60 or less
- Conditions used: 24 h
Labels: 1 (active), 0 (inactive)

| Molecule | Category label |
| --- | --- |
| C=C(C)[C@@H]1[C@H]2OC(=O)[C@@H]1[C@]1(O)C[C@H]3O[C@]34C(=O)O[C@H]2[C@]14C [picrotoxinin] (10 µM) | 0 |
| CCCS(=O)(=O)Nc1ccc(F)c(C(=O)c2c[nH]c3ncc(-c4ccc(Cl)cc4)cc23)c1F [vemurafenib] (10 µM) | 0 |
| COc1ccc2nc3ccc(Cl)cc3c(SCCCN)c2c1 (10 µM) | 0 |
| CCCCCCCCCCCC(=O)N(CCO)CCO [lauric-diethanolamide] (10 µM) | 0 |
| CC(C)[C@@H](C)/C=C/[C@@H](C)[C@H]1CC[C@H]2C3=CC=C4C[C@@H](O)CC[C@]4(C)[C@H]3CC[C@]12C [ergosterol] (10 µM) | 0 |
| CCCCCCCC/C=C\CCCCCCCC(=O)NCc1ccc(O)c(OC)c1 [olvanil] (10 µM) | 0 |
| CCNCCS(=O)(=O)NC[C@@]1(c2ccccc2)SC(NC(=O)C(C)(C)C)=NN1C(=O)C(C)(C)C [litronesib] (10 µM) | 0 |
| COc1ccc(C(C)(C)C)cc1CN[C@H]1C2CCN(CC2)[C@H]1C(c1ccccc1)c1ccccc1 [maropitant] (0.833333 µM) | 0 |
| Cc1cc(-n2c(=O)[nH]c(=O)n(C)c2=O)ccc1Oc1ccc(SC(F)(F)F)cc1 [toltrazuril] (10 µM) | 0 |
| CCOC(=O)c1c(O)nc2cccc3c2c1-c1ccccc1C3=O (10 µM) | 0 |
| Cc1c(C)c2c(c(C)c1O)CCC(C)(C)O2 (10 µM) | 0 |
| C=C[C@H]1CN2CC[C@H]1CC2C(OC(=O)OCC)c1ccnc2ccc(OC)cc12 (stereo in doubt) [quinine-ethyl-carbonate] (10 µM) | 0 |
| Cc1ccc(NC(=O)Nc2cc(C(F)(F)F)ccc2F)cc1Nc1ccc2c(c1)NC(=O)/C2=C\c1ccc[nH]1 (10 µM) | 1 |
| Oc1cc2c(cc1O)[C@@H]1c3ccc(O)c(O)c3OC[C@]1(O)C2 [hematoxylin] (10 µM) | 0 |
| O=C(O)CNC(=O)c1ccccc1I [2-iodohippuric-acid] (10 µM) | 0 |
| CCCN(CC1CC1)c1nc(C)nc(Nc2c(Cl)cc(Cl)cc2Cl)c1Cl (10 µM) | 0 |

* * *

- Test system: Vero E6 infected with SARS-CoV-2
- Experiment: morphology score (similarity to uninfected cells); higher = more like uninfected cells
- Conditions used: 24 h
Label rule, in plain words: morphology score of -0.04 and up is 1, under -0.04 is -1.

| Compound | Experimental target | Category label |
| --- | --- | --- |
| O=C(O)CC(S)C(=O)O (centres undefined) [mercaptosuccinic-acid] (10 µM) | Vero E6 infected with SARS-CoV-2 | -1 |
| CC1(C)N=C(N)N=C(N)N1OCCCOc1cc(Cl)c(Cl)cc1Cl (10 µM) | Vero E6 infected with SARS-CoV-2 | 1 |
| COc1cc(N2CCC(N)CC2)ccc1Nc1ncc(Cl)c(-c2c[nH]c3ccccc23)n1 (0.833333 µM) | Vero E6 infected with SARS-CoV-2 | 1 |
| Cc1c(S(=O)(=O)O)oc2c1C(=O)C(=O)c1c-2ccc2c1CCCC2(C)C [sodium-tanshinone-II-A-sulfonate] (10 µM) | Vero E6 infected with SARS-CoV-2 | 1 |
| O=C(O)/C=C(/CC(=O)O)C(=O)O [cis-aconitic-acid] (10 µM) | Vero E6 infected with SARS-CoV-2 | -1 |
| CNCC[C@@H](Oc1ccccc1C)c1ccccc1 [atomoxetine] (10 µM) | Vero E6 infected with SARS-CoV-2 | 1 |
| COc1cc(/C=C/C(=O)O)ccc1O [ferulic-acid] (10 µM) | Vero E6 infected with SARS-CoV-2 | -1 |
| Cc1cc(Nc2cc(N3CCN(C)CC3)nc(Sc3ccc(NC(=O)C4CC4)cc3)n2)n[nH]1 [tozasertib] (10 µM) | Vero E6 infected with SARS-CoV-2 | 1 |
| c1coc(-c2nnc3sc(C4CCCCC4)nn23)c1 [cardionogen-1] (10 µM) | Vero E6 infected with SARS-CoV-2 | 1 |

* * *

Listed here are molecules together with their documented inhibition of SARS-CoV-2 cytopathic effect.
- Test system: Vero E6 infected with SARS-CoV-2
- Experiment: inhibition of SARS-CoV-2 cytopathic effect; higher = more antiviral protection, active = above 15
- Conditions used: 1 nM; 48 h
Parameter: inhibition of SARS-CoV-2 cytopathic effect (%)

| Molecule | Measured number |
| --- | --- |
| [O-][n+]1cccc(CO)c1 [mepiroxol] | 0.82 |
| OC[C@H]1NC[C@@H](O)[C@@H](O)[C@@H]1O | -5.76 |
| CC(C)C(=O)Oc1ccc(CO)cc1[C@H](CCN(C(C)C)C(C)C)c1ccccc1 | -1.73 |
| OCCCCO | -4.4 |
| COc1cc(COc2cc(N)c(Cl)cc2C(=O)CCC2CCN(CCNS(C)(=O)=O)CC2)cc(OC)c1 | 0.91 |
| COc1ccc(-n2nc(C(F)(F)F)cc2-c2ccc(Cl)cc2)cc1 | 2.57 |
| C=CC(=O)Nc1cc(Nc2nccc(-c3cn(C)c4ccccc34)n2)c(OC)cc1N(C)CCN(C)C | 1.08 |
| CC(=O)O[C@]1(C(C)=O)CC[C@H]2[C@@H]3C=C(C)C4=CC(=O)CC[C@]4(C)[C@H]3CC[C@@]21C [megestrol-acetate] | -0.56 |
| Cn1cccc1/C=C1\C(=O)NC(=O)c2ccccc21 | 2.55 |

* * *

- System: Vero E6 infected with SARS-CoV-2
- Experiment: inhibition of SARS-CoV-2 cytopathic effect; higher = more antiviral protection, active = above 15
- Conditions used: 833.33 nM; 48 h
inhibition of SARS-CoV-2 cytopathic effect values, listed per item
Parameter: inhibition of SARS-CoV-2 cytopathic effect (%)

| Molecule | Measurement units | Measured number |
| --- | --- | --- |
| C=C1CCN([C@H](C)[C@](O)(Cn2cncn2)c2ccc(F)cc2F)CC1 [efinaconazole] | % | 0.56 |
| CNC(=N)NCCC[C@H](N)C(=O)O [targinine] | % | 0.16 |
| Cc1sc(C)c(C(=O)NC2(c3ccc(C(=O)O)cc3)CC2)c1Cc1ccc(C(F)(F)F)cc1 | % | -1.38 |
| Cc1noc(C)c1-c1ccc(-c2cc(C(N)=O)c(NC(N)=O)s2)c(O[C@H]2CCNC2)c1 | % | -12.1 |
| CN1C(C(=O)Nc2ccccn2)=C(O)c2ccccc2S1(=O)=O [piroxicam] | % | 0.8 |
| CC[C@H](C)[C@H](N)C1=N[C@H](C(=O)N[C@@H](CC(C)C)C(=O)N[C@H](CCC(=O)O)C(=O)N[C@H](C(=O)N[C@H]2CCCCNC(=O)[C@H](CC(N)=O)NC(=O)[C@@H](CC(=O)O)NC(=O)[C@H](Cc3cnc[nH]3)NC(=O)[C@@H](Cc3ccccc3)NC(=O)[C@H]([C@@H](C)CC)NC(=O)[C@@H](CCCN)NC2=O)[C@@H](C)CC)CS1 [bacitracin] | % | -1.54 |
| O=C(Nc1ccncc1)c1cc([N+](=O)[O-])ccc1Cl | % | -1.5 |

* * *

- Test system: Vero E6 infected with SARS-CoV-2
- Experiment: inhibition of SARS-CoV-2 cytopathic effect; higher = more antiviral protection, active = above 15
- Conditions used: 833.33 nM; 48 h
Quick reference: inhibition of SARS-CoV-2 cytopathic effect of the listed items.
Parameter: inhibition of SARS-CoV-2 cytopathic effect (%)

| Molecule | Measured number |
| --- | --- |
| CC#CCOC(=O)c1c(C)nc2sc3c(c2c1N)CCC(O)C3 (centres undefined) | -0.32 |
| Cn1c(NC[C@@H](N)Cc2ccccc2)nc(-c2ccncc2)c(-c2ccc3ccccc3c2)c1=O | 2.09 |
| Cc1cc(C)c(Nc2ccnc(Nc3ccc(C#N)cc3)n2)c(C)c1 | 2.16 |
| Cc1ccccc1C(C(=O)NC1CCCCC1)N(C(=O)Cn1ccnc1C)c1cccc(F)c1 (centres undefined) | 1.79 |
| O=C(Nc1cccc2c(=O)cc(-c3nnn[nH]3)oc12)c1ccc(OCCCCc2ccccc2)cc1 | -3.27 |
| CC1Cc2ccccc2N1NC(=O)c1ccc(Cl)c(S(N)(=O)=O)c1 (centres undefined) [indapamide] | 1.3 |
| CCOC(=O)c1c(C)[nH]c2ccc3c(c12)CN1CCc2cc(OC)ccc2C1O3 (centres undefined) | 3.53 |
| Clc1cccc(/C=N/N=C/c2cccc(Cl)c2)c1 | 1.92 |
| CCc1cc(C(N)=S)ccn1 [ethionamide] | -1.73 |
